Data credit: the supplement of paper PMC12764529

# Method Description: folding stability dG unfold (combined trypsin and chymotrypsin); higher = more stable
Collected folding stability dG unfold values appear next to each entry.

- Residue Sequence: "SAGGSAGGSAGGGPMVTRTIPRGVVVTKAELKDDKPVKYTVVKEEPVPVTVRALPEELLSAGGSAGGSAGGS [r10_492_JUSTAS]"
  Reported Relation: "<"
  folding stability dG unfold / kcal/mol: -1
- Residue Sequence: "SAKKKITVKIKIEYDKETGTLKVEVEITYPDGKKVKVEAEIDLKTGKITIKVYDKNGKLIAEIEIELPPSAG [r14_524_TrROS_Hall]"
  Reported Relation: "="
  folding stability dG unfold / kcal/mol: 2.61
- Residue Sequence: "SAGSSSMVLLKVTITFTDPNGTTTTLTYTFDDPSNPEKARAAVEALAAEIKAATGASWTITMTTVPVPGSAG [r14_146_JUSTAS]"
  Reported Relation: "="
  folding stability dG unfold / kcal/mol: 5.17
- Residue Sequence: "SAGGSAGGSAGMYYVIKRPGKVEILPEEEVPKVIEEDPNVEVKKFDSEEEAKKALEELLKSAGGSAGGSAGG [r11_60_JUSTAS]"
  Reported Relation: "="
  folding stability dG unfold / kcal/mol: 0.704
- Residue Sequence: "SAGMVKEVKSEEEAKKLPPGTLVKLTKPDPTSNKDVTYYRTYPDGSGGILAKSDSSGKVDLTPEIKKILSAG [r5_490_JUSTAS]"
  Reported Relation: "<"
  folding stability dG unfold / kcal/mol: -1
- Residue Sequence: "SAGGSAGGSAGGEPEPIPFRIKPHDEDGKKKGTFPINPLQKKGIPAEEFADKNGFEIEISAGGSAGGSAGGS [r10_153_TrROS]"
  Reported Relation: "<"
  folding stability dG unfold / kcal/mol: -1
- Residue Sequence: "SAGGSAGGSAGGSQDLVKITIKLPGGEEKEITTPAEEIDKAIKELGIKKEDVEILEITEVSAGGSAGGSAGG [r7_211_JUSTAS]"
  Reported Relation: "="
  folding stability dG unfold / kcal/mol: 1.34
- Residue Sequence: "SAGGSAGGSAMTPQVIKVTLYKPATGDVRTVVVLDPVPNTSLDEVAAALPSDYVVAKVEVGSAGGSAGGSAG [r3_80_TrMRF]"
  Reported Relation: "="
  folding stability dG unfold / kcal/mol: -0.0325
- Residue Sequence: "SAPWVYHVRIEYKGPDGEPVAEHTIMVKTPEALKEQIRKHFGLSPAQIKNIEVEPVIPAEEMNEMQEKGSAG [r14_852_TrROS]"
  Reported Relation: "="
  folding stability dG unfold / kcal/mol: 0.882
- Residue Sequence: "SAGGSAGGSMRVRFLVTEPGLGPETAALRVERRLLEEYPVRVKGVRVRTRPDGGYLVVVEVEPSAGGSAGGS [r12_781_TrMRF]"
  Reported Relation: "="
  folding stability dG unfold / kcal/mol: 0.94
- Residue Sequence: "SAGGMLTLTDPETGVPYTGTPVSTTTTTVVLTTPDGTPVETVTVTVTTYEFTAPDGTPVTLTETTGLSAGGS [r8_214_JUSTAS]"
  Reported Relation: "="
  folding stability dG unfold / kcal/mol: 2.08
- Residue Sequence: "SAGGSSSLAIITIKPKEIKSYYNPNNPVVVSEMEFEVDITIYSDNEISPEKVKELIEEIEKAFPGIKSAGGS [r8_306_TrMRF]"
  Reported Relation: "="
  folding stability dG unfold / kcal/mol: 2.32
- Residue Sequence: "SAGGGTTITLSFADGTTKTLTLPGLTEVVEEPGRVVVRADVPERRVVVTFEPATGTITVEEFAPEEPVSAGG [r13_392_JUSTAS]"
  Reported Relation: "="
  folding stability dG unfold / kcal/mol: 1.86
- Residue Sequence: "SAGGSAGGSAGMRTVEVKVVFKEGDKEFEKTITITLSPDDPSLEERAKEIAEKGIVVEIIRSAGGSAGGSAG [r3_30_JUSTAS]"
  Reported Relation: "="
  folding stability dG unfold / kcal/mol: 1.75
- Residue Sequence: "SAGGSAGGGMKVKKIEIKKDPNNPNIYTITIELEDEPIEYTVPPSTPTTIKKPGGKPLYSSPLPSAGGSAGG [r6_922_JUSTAS]"
  Reported Relation: "="
  folding stability dG unfold / kcal/mol: 0.567
- Residue Sequence: "SAGGSAGGSAGGSGMKYKVTVTFPGGEVRSLEVDSVEEALEKLKEENRPIKEVTVEPLESAGGSAGGSAGGS [r4_213_JUSTAS]"
  Reported Relation: "="
  folding stability dG unfold / kcal/mol: 2.44

----------
Collected folding stability dG unfold values appear next to each entry.
# Method Description: folding stability dG unfold (combined trypsin and chymotrypsin); higher = more stable
Measurement Type: folding stability dG unfold

- Residue Sequence: "SAAMLFEKKTGIKVDVSLVPPEQISQLPPSYTVTPEGDVVVVTTVTTLPLSSYPVKLPPVYDPNTLKLLSAG [r14_126_JUSTAS]"
  Measurement Type: "folding stability dG unfold"
  Endpoint Result: "-0.0133 kcal/mol"
- Residue Sequence: "SAGGSAGGSAGGMVRTLDLPNLSEEEIEEIIKKNPNEVYEITFRPPNGPEVTKTIPTHHSAGGSAGGSAGGS [r10_408_JUSTAS]"
  Measurement Type: "folding stability dG unfold"
  Endpoint Result: "0.524 kcal/mol"
- Residue Sequence: "SAGGSAGGSMKPLGQGDFEDPDGWKIKISMYPDGWFRIEIYDKNGKPKETIPVPANDLPDILKSAGGSAGGS [r12_664_TrROS]"
  Measurement Type: "folding stability dG unfold"
  Endpoint Result: "1.21 kcal/mol"
- Residue Sequence: "SAGGSAMKAKVVDTSLKESKTKDDSIIVTVTVKYPDGSVTPIVYPVSSSGGISEEEVEKAIKELLESAGGSA [r15_233_JUSTAS]"
  Measurement Type: "folding stability dG unfold"
  Endpoint Result: "-0.661 kcal/mol"
- Residue Sequence: "SAGGKPKVEIKIEEIPVDGELYLVIEIKVEEKNATLTLTLPNGEEITMEFDEETGTVRIIARIPLEDLSAGG [r13_380_TrROS_Hall]"
  Measurement Type: "folding stability dG unfold"
  Endpoint Result: "3.12 kcal/mol"

----------
# Method Description: folding stability dG unfold from chymotrypsin proteolysis; higher = more stable
Collected folding stability dG unfold values appear next to each entry.
Measurement Type: folding stability dG unfold (kcal/mol)

- Residue Sequence: "SAGGSAGGSEATLEVEVRVDGVLVRVRVEYDLETQELRIEVEVRPLPPPPVEVRTEYRSLEDLSAGGSAGGS [r12_813_TrROS_Hall]"
  Output Unit: "kcal/mol"
  Endpoint Result: 1.59
- Residue Sequence: "SAGKKKKIKIKVTIVVPVKTKEDVELMKELAEKFAPELGKETAKKLGLPPEVEEIEVDVNILIVSPEELSAG [r5_436_TrMRF]"
  Output Unit: "kcal/mol"
  Endpoint Result: 1.89
- Residue Sequence: "SAGGSAGGSEPVVIKVTVTNENGEKRTITLPEIEVEPGETIEEIAAALAAEPGVKEVKVEVVPSAGGSAGGS [r12_199_TrROS_Hall]"
  Output Unit: "kcal/mol"
  Endpoint Result: 0.444
- Residue Sequence: "SAGGMKPGEIVEKITIEIEINGKKYKIEMTFYKDNGIIEIKIYNKNGKLIKTFKFYIDPKTKKIILLSAGGS [r16_798_TrROS_Hall]"
  Output Unit: "kcal/mol"
  Endpoint Result: 3.81
- Residue Sequence: "SAGGSAGGNWKVEIWPNGEQQEYTIDEIKKQLKNDIPPNYMIRVKGSGKWIPVRELLKEAGIPLSAGGSAGG [r6_937_TrROS]"
  Output Unit: "kcal/mol"
  Endpoint Result: 0.793
- Residue Sequence: "SAGMVVENPGTETRVVFDPETGELYVEVGDKVYRIPLPPGVEVEFEVDPEAGTIRVYFPNTGEVLELPLSAG [r5_858_TrMRF]"
  Output Unit: "kcal/mol"
  Endpoint Result: 3.38
- Residue Sequence: "SAGGSAGGSAGLPPGDKVTISIPIVIPDGYMINSHITIDPDNGETEIEIQIYPLKDPDALSAGGSAGGSAGG [r11_695_TrROS]"
  Output Unit: "kcal/mol"
  Endpoint Result: 2.12
- Residue Sequence: "SMPLIIIAKKNKDGTGTILIKKGDKVIEIEFEKNIKPEELKKKAIETALTLKKKTEELGIPIEIKEIIFESA [r9_751_TrMRF]"
  Output Unit: "kcal/mol"
  Endpoint Result: 2.23
- Residue Sequence: "SAGGSAGGGKPKVEIEYNGKTYEFDSLEELVAEAKEPVRIRLPNGEEIELSREDLKNLTVRLVPSAGGSAGG [r6_684_TrROS_Hall]"
  Output Unit: "kcal/mol"
  Endpoint Result: 2.29
- Residue Sequence: "SAGGSAGGSAGGMTITVNGPTATITYPDGSVETIPLTSPEEFEALKAAHPDVEATPASPSAGGSAGGSAGGS [r10_1211_JUSTAS]"
  Output Unit: "kcal/mol"
  Endpoint Result: 1.21
- Residue Sequence: "SAGGTIKGLPVEEIKDEIRDLFPDHPMKVDIEPIDEDEGYVRVEIEPPRPNGKTQRQEHTIPIRPDDSAGGS [r16_564_TrROS]"
  Output Unit: "kcal/mol"
  Endpoint Result: -0.579
- Residue Sequence: "SAGGLEEIAEKIAEELKKKGYKAEIKEVVKPPTNEVVIKYTVTYKDKNEIIEEEEKEITFKLPPGLESAGGS [r8_102_JUSTAS]"
  Output Unit: "kcal/mol"
  Endpoint Result: 0.741
- Residue Sequence: "SAGGAMPVELVETLEEIPGKGIVLRKFRDPLSDKWFLATVPVETLPNGEKKYLIELNIDGSGMTLELGSAGG [r13_993_JUSTAS]"
  Output Unit: "kcal/mol"
  Endpoint Result: 0.11
- Residue Sequence: "SAGGSAGGSTIMFKVDSPDELIDKIKIPPGFRVEIMQTPDRYYVMIRPPPSPEQMAKREKNNGSAGGSAGGS [r12_274_TrROS]"
  Output Unit: "kcal/mol"
  Endpoint Result: 3.16
- Residue Sequence: "SAGGSAGGSAGIEIELNGKPVTIHPNPDGYYRVRFPGPGKSILIPGMPPDDIKDFAKELLSAGGSAGGSAGG [r11_1085_TrROS]"
  Output Unit: "kcal/mol"
  Endpoint Result: 0.137
- Residue Sequence: "SAGGSAGGSMSTSLSLSSAPGVSVVTTAHPDSTVVTEQPPDGSRVVRVLDPAGELVAEEAVAPSAGGSAGGS [r12_471_JUSTAS]"
  Output Unit: "kcal/mol"
  Endpoint Result: -0.302
- Residue Sequence: "SAGGRLVEAIREANKQGKPMSREEIKDKIKDAIREQNEENGGKIPEIEITDIHWNPDNGYVPIEIKVSAGGS [r16_365_TrROS]"
  Output Unit: "kcal/mol"
  Endpoint Result: -0.62
- Residue Sequence: "SAGGSAGGSMKLEVEAELEVPLPNGKPKRFKVKFRVEPGESGVKVEVLEVDDPLVVEAIKKLFSAGGSAGGS [r12_743_TrMRF]"
  Output Unit: "kcal/mol"
  Endpoint Result: 3
- Residue Sequence: "SAGGSAGGSAKKIVIKVKPGMTEEEILEEIAKKLGLKPEKIKKIEIERNKDGYLYVTIEIESAGGSAGGSAG [r3_26_TrROS_Hall]"
  Output Unit: "kcal/mol"
  Endpoint Result: 3.87
- Residue Sequence: "SAGGSAGGSMVTPDGRLVIEIEVSEEDIEKLKEEARKKLGVKEVKVEVEEKDGKLKVRIVVEPSAGGSAGGS [r12_929_TrROS_Hall]"
  Output Unit: "kcal/mol"
  Endpoint Result: 2.19
- Residue Sequence: "SAGGDKLEDLPLEDVEVLRVEVIPLPDGGVLVVFEFKVSDEEGPERLVRVVVLVENDEARVFVEPLGSAGGS [r16_469_TrMRF]"
  Output Unit: "kcal/mol"
  Endpoint Result: 3.2
